assay.target: human NPY Y5 receptor (Homo sapiens, UniProt Q15761)
Construct: expressed in transfected cells
Sequence (Q15761 whole entry): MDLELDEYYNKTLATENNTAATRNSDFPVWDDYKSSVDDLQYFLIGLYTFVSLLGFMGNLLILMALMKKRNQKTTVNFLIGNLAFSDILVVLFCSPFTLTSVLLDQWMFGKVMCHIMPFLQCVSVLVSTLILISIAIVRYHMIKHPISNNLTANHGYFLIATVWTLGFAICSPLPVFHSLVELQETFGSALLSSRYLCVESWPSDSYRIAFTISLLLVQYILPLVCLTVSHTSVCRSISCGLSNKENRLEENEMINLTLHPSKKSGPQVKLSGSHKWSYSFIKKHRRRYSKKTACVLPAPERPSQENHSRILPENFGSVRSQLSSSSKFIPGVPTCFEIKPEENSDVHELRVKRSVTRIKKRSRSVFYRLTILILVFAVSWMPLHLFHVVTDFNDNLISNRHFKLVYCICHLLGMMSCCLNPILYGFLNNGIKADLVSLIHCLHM
test.details: cAMP production inhibitory activity in CHO cells
Type: cell-based
experimental.context: against 50 nM NPY inhibition of forskolin stimulated cAMP, CHO cells expressing human NPY Y5 receptor
result.type: IC50 (nM)

{"columns": ["compound", "uom", "data.value"],
 "data": [
  ["CC(C)(C)S(=O)(=O)NC1CCC(C(=O)Nc2ccc(N3CCC(O)(c4ccc(Cl)cc4)CC3)cc2)CC1 (stereo not shown)", "nM", 11]
]}

A. CC(C)(C)S(=O)(=O)NC1CCC(C(=O)Nc2cnc(-c3ccccc3)cn2)CC1 (stereo not shown)
B. CC(C)(C)S(=O)(=O)Nc1ccc(C(=O)Nc2ccc3ncsc3c2)cc1
Task: Of the two listed items, which has the higher IC50? First: A Second: B Provide the label of your selected option as the answer.
Result: B

1. CC(C)(C)S(=O)(=O)NC1CCC(C(=O)Nc2ccc(-c3ccccc3)cc2)CC1 (stereo not shown)
2. CC(C)(C)S(=O)(=O)NC1CCC(C(=O)Nc2ccc(N3CCCS3(=O)=O)cc2)CC1 (stereo not shown)
Task: Please indicate which entry, 1 or 2 , has the lower recorded IC50 value. Provide the label of your selected option as the answer.
Result: 1

I. CC(C)(C)S(=O)(=O)NC1CCC(C(=O)NCc2cccc3ccccc23)CC1 (stereo not shown)
II. C[C@@H]1CN(c2ccc(NC(=O)C3CCC(NS(=O)(=O)C(C)(C)C)CC3)cc2Cl)C[C@H](C)O1 (stereo partly shown)
III. CC(C)(C)S(=O)(=O)NC1CCC(C(=O)NCCSc2cc(C(F)(F)F)nc3ccccc23)CC1 (stereo not shown)
IV. CC(C)c1ccc(NC(=O)C2CCC(NS(=O)(=O)C(C)(C)C)CC2)cc1 (stereo not shown)
Task: Hello, I need these entries ordered by IC50, highest reading first. Thanks! List each label, following the requested order.
Result: III, II, I, IV

A. C[C@@H]1CN(c2ccc(NC(=O)C3CCC(NS(=O)(=O)C(C)(C)C)CC3)cn2)C[C@H](C)O1 (stereo partly shown)
B. CC(C)(C)S(=O)(=O)Nc1ccc(C(=O)Nc2ccc(-c3ccccc3)cc2)cc1
C. CC(C)(C)S(=O)(=O)NC1CCC(C(=O)Nc2cccc(C3CCOCC3)c2)CC1 (stereo not shown)
Task: Hello, I need these entries ordered by IC50, highest reading first. Thanks! List each label, following the requested order.
Result: C, A, B

====

assay.target: human NPY Y5 receptor (Homo sapiens, UniProt Q15761)
Construct: expressed in transfected cells
test.details: Affinity for NPY Y5 receptor ([125I] peptide YY binding, CHO cell membranes)
experimental.context: inhibition of specific [125I] peptide YY binding, membranes of CHO cells expressing NPY Y5 receptor
pIC50: −log10 of the molar value.
result.type: pIC50

{"columns": ["compound", "pIC50"],
 "data": [
  ["CC(=O)Nc1cccc(NC(=O)C2CCC(NS(=O)(=O)C(C)(C)C)CC2)c1 (stereo not shown)", 8.70],
  ["CC(C)(C)S(=O)(=O)NCCCCC(=O)Nc1ccc(N2CCC(O)(c3ccc(Cl)cc3)CC2)cc1", 9.66],
  ["CC(C)(C)S(=O)(=O)NC1CCC(C(=O)Nc2ccc(-n3ccc4ccccc43)cc2)CC1 (stereo not shown)", 9.21]
]}

A. Cc1cc(=O)oc2cc(NC(=O)[C@H]3CC[C@H](NS(=O)(=O)C(C)C)CC3)ccc12
B. CC(=O)c1cc2cc(NC(=O)C3CCC(NS(=O)(=O)C(C)(C)C)CC3)ccc2oc1=O (stereo not shown)
C. CC(C)S(=O)(=O)NC1CCC(C(=O)Nc2ccc(-c3ccco3)cc2)CC1 (stereo not shown)
D. CC(C)(C)S(=O)(=O)Nc1ccc(C(=O)Nc2ccc3c(c2)OCCO3)cc1
Task: Sort low-to-high on pIC50, please. List each label, following the requested order.
Result: D, B, A, C
(D: 8.21, B: 9.02, A: 9.23, C: 9.66)

====

assay.target: human NPY Y5 receptor (Homo sapiens, UniProt Q15761)
Construct: expressed in transfected cells
test.details: Affinity for NPY Y5 receptor ([125I] peptide YY binding, CHO cell membranes)
experimental.context: inhibition of specific [125I] peptide YY binding, membranes of CHO cells expressing NPY Y5 receptor
result.type: IC50 (nM)

// solved cases for IC50 follow
{"columns": ["compound", "IC50 [nM]"],
 "data": [
  ["CC(C)S(=O)(=O)NCCCCC(=O)Nc1ccc2c(c1)C(=O)N(c1ccccc1)C2=O", 0.37],
  ["CC(C)S(=O)(=O)NC1CCC(C(=O)Nc2cccc(OCC3CC3)c2)CC1 (centres unmarked)", 0.44]
]}

1. CC(C)(C)S(=O)(=O)NC1CCC(C(=O)Nc2cccc(-c3ccco3)c2)CC1 (centres unmarked)
2. CC(C)(C)S(=O)(=O)NC1CCC(C(=O)Nc2ccc(N3CCCC3=O)cc2)CC1 (centres unmarked)
3. CC(C)(C)S(=O)(=O)NC1CCN(C(=O)Nc2ccc3oc(=O)ccc3c2)CC1
Task: Hello, I need these entries ordered by IC50, highest reading first. Thanks! List each label, following the requested order.
Result: 3, 2, 1
(3: 9.5 nM, 2: 1.9 nM, 1: 0.55 nM)

====

assay.target: human NPY Y5 receptor (Homo sapiens, UniProt Q15761)
Construct: expressed in transfected cells
test.details: Affinity for NPY Y5 receptor ([125I] peptide YY binding, CHO cell membranes)
experimental.context: inhibition of specific [125I] peptide YY binding, membranes of CHO cells expressing NPY Y5 receptor
result.type: IC50 (nM)

// solved cases for IC50 follow
{"columns": ["compound", "result.type", "data.value"],
 "data": [
  ["C[C@@H]1CN(c2ccc(NC(=O)C3CCC(NS(=O)(=O)C(C)(C)C)CC3)cc2)C[C@@H](C)O1 (some centres unmarked)", "IC50", 3.6],
  ["CCC1(CC)CN(c2ccc(NC(=O)C3CCC(NS(=O)(=O)C(C)(C)C)CC3)cc2)CCO1 (centres unmarked)", "IC50", 1.2],
  ["CCCCc1ccc(NC(=O)c2ccc(NS(=O)(=O)C(C)(C)C)cc2)cc1", "IC50", 1.7],
  ["CC(C)S(=O)(=O)Nc1ccc(C(=O)Nc2ccc3c(c2)CCC3)cc1", "IC50", 7]
]}

1. CC(C)(C)S(=O)(=O)NC1CCC(C(=O)Nc2ccc(-n3cccc3)cc2)CC1 (centres unmarked)
2. CC(C)(C)S(=O)(=O)NC1CCC(C(=O)Nc2nc3ccccc3s2)CC1 (centres unmarked)
3. CC(C)(C)S(=O)(=O)NC1CCC(C(=O)Nc2ccc(-c3ccc(C#N)cc3)cc2)CC1 (centres unmarked)
4. CC(C)S(=O)(=O)N[C@H]1CC[C@H](C(=O)Nc2ccc3c(c2)C(=O)N(c2ccccc2)C3=O)CC1
Task: Sort low-to-high on IC50, please. List each label, following the requested order.
Result: 1, 4, 3, 2

====

assay.target: human NPY Y5 receptor (Homo sapiens, UniProt Q15761)
Construct: expressed in transfected cells
test.details: Affinity for NPY Y5 receptor ([125I] peptide YY binding, CHO cell membranes)
experimental.context: inhibition of specific [125I] peptide YY binding, membranes of CHO cells expressing NPY Y5 receptor
pIC50: −log10 of the molar value.
result.type: pIC50

P. CCCCOc1ccc(NC(=O)C2CCC(NS(=O)(=O)C(C)(C)C)CC2)c(N)c1 (stereo not shown)
Q. CCCCc1ccc(NC(=O)c2ccc(N[S+]([O-])C(C)(C)C)cc2)cc1 (stereo not shown)
R. CC(C)(C)S(=O)(=O)NC1CCC(C(=O)Nc2ccc(NC(=O)C3CCCCC3)cc2)CC1 (stereo not shown)
S. CCCCc1ccc(NC(=O)CCCCNS(=O)(=O)C(C)CC)cc1 (stereo not shown)
Task: Could you arrange the 4 molecules above by pIC50, starting with the largest number? List each label, following the requested order.
Result: R, P, S, Q

A. CC(C)(C)S(=O)(=O)NC1CCC(C(=O)Nc2ccc(-c3ccc(-c4ccccc4)cc3)cc2)CC1 (stereo not shown)
B. CC(C)(C)S(=O)(=O)NC1CCC(C(=O)Nc2ccc(N3CCC(O)(c4ccc(Cl)cc4)CC3)cc2)CC1 (stereo not shown)
Task: Of the two listed items, which has the higher pIC50? First: A Second: B Provide the label of your selected option as the answer.
Result: B
(B: 8.96, A: 8.55)

P. CC(C)(C)S(=O)(=O)NC1CCC(C(=O)Nc2cccc(N3CCOCC3)c2)CC1 (stereo not shown)
Q. Cc1cc(=O)oc2cc(NC(=O)CCCCNS(=O)(=O)C(C)(C)C)ccc12
R. CC(C)(C)S(=O)(=O)NC1CCC(C(=O)Nc2ccc(N3CC=CC3)cc2)CC1 (stereo not shown)
Task: Sort low-to-high on pIC50, please. List each label, following the requested order.
Result: P, Q, R
(P: 8.32, Q: 9.02, R: 9.52)

1. CC(C)(C)S(=O)(=O)N[C@H]1CC[C@H](C(=O)Nc2ccc(-c3nnnn3-c3ccccc3)cc2)CC1
2. C[C@@H]1C[C@H](C)CN(c2ccc(NC(=O)C3CCC(NS(=O)(=O)C(C)(C)C)CC3)cc2)C1 (stereo partly shown)
Task: Please indicate which entry, 1 or 2 , has the lower recorded pIC50 value. Provide the label of your selected option as the answer.
Result: 1
(1: 8.89, 2: 9.14)

A. CC(C)(C)S(=O)(=O)NC1CCC(C(=O)Nc2ccc(Br)cc2)CC1 (stereo not shown)
B. CC(C)(C)S(=O)(=O)NC1CCC(C(=O)Nc2cccc3c2Cc2ccccc2-3)CC1 (stereo not shown)
Task: Please indicate which entry, A or B , has the lower recorded pIC50 value. Provide the label of your selected option as the answer.
Result: A
